test system: PC3 (prostate); test: In vitro cytotoxic activity assay (MTT), PC3; format: cell-based; settings: Homo sapiens, Prostate cell; PC3 (prostate) cells, exposed for 96 hours; read-out: Cytotoxicity activity IC50 (50% inhibition of cell proliferation)
measurement_label: pIC50
Interpret pIC50 as the negative base-10 log of the concentration measured in mol/L.

The molecule listed as O=C1Nc2c(c(Nc3cccc(Cl)c3)nc3cc(C(=O)O)ccc23)C1=O shows pIC50 equal to 5.89

---

tested on: MIAPaCa-2 (pancreas); experiment: In vitro cytotoxic activity assay (MTT), MIAPaCa-2; assay type: cell-based; conditions: Homo sapiens, MIA PaCa-2; MIAPaCa-2 (pancreas) cells, exposed for 96 hours; read-out: Cytotoxicity activity IC50 (50% inhibition of cell proliferation)
measurement_label: pIC50
Interpret pIC50 as the negative base-10 log of the concentration measured in mol/L.

The molecule listed as O=C1Nc2c(c(Nc3cccc(Cl)c3)nc3cc(C(=O)O)ccc23)C1=O shows pIC50 equal to 6.05
